Can you tell me TGI for the items I'm about to list?
Tested on: LOX IMVI melanoma
Procedure text: NCI tumour cell line growth inhibition, 48 h
Where a SMILES comes first, the peptide text is derived from it. [ ]: non-standard residue; d: D form. The star is where a group is joined. Phe(4-NO2) = N[CH](Cc1ccc([N+](=O)[O-])cc1)C(=O)O; Boc = CC(C)(C)OC(=O)*

CC1(C)CCC[C@]2(C)[C@H]3[C@H](C#N)c4cc(O)c(O)cc4O[C@@]3(C)CC[C@@H]12; > 10 µM

Can you give me TGI for all of these, one by one?
1. O=C1c2ccc(O)c(O)c2C(=O)c2c(O)ccc(O)c21
2. NC(N)=NS(=O)(=O)c1ccc(NCCc2c3ccccc3nc3ccccc23)cc1
3. CC(=O)Nc1ccc(C2SCc3nc4ccccc4n32)cc1 (centres undefined)
4. COC(=O)C(Cc1c[nH]c2ccccc12)NC(=O)C(Cc1c[nH]c2ccccc12)NC(=O)C(Cc1c[nH]c2ccccc12)NC(=O)C(Cc1c[nH]c2ccccc12)NC(=O)C(Cc1c[nH]c2ccccc12)NC(=O)C(Cc1c[nH]c2ccccc12)NC(=O)C(Cc1c[nH]c2ccccc12)NC(=O)C(Cc1c[nH]c2ccccc12)NC(=O)OC(C)(C)C (centres undefined) (Boc-WWWWWWWW-OMe; configuration not given here)
5. CCCC(=O)OC1C(CO)OC(n2cc(F)c(=O)[nH]c2=O)C1F (centres undefined)

Result string:
1. 44.3 µM
2. > 100 µM
3. > 100 µM
4. > 100 µM
5. > 100 µM

Batch: TGI for all items listed.
1. CNC(=O)CCC(NC(=O)OC(C)(C)C)C(=O)NC(Cc1ccc([N+](=O)[O-])cc1)C(=O)NCC(=O)NC (centres undefined) (Boc-Glu(NHMe)-[Phe(4-NO2)]-Gly-NHMe; configuration not given here)
2. CC(=O)Nc1c(C)cc2c(nc3n2CCC3O)c1[N+](=O)[O-] (centres undefined)
3. O=C(OC[C@H]1O[C@H](OC(=O)c2cc(O)c(O)c(OC(=O)c3cc(O)c(O)c(O)c3)c2)[C@H](OC(=O)c2cc(O)c(O)c(OC(=O)c3cc(O)c(O)c(O)c3)c2)[C@@H](OC(=O)c2cc(O)c(O)c(OC(=O)c3cc(O)c(O)c(O)c3)c2)[C@@H]1OC(=O)c1cc(O)c(O)c(OC(=O)c2cc(O)c(O)c(O)c2)c1)c1cc(O)c(O)c(OC(=O)c2cc(O)c(O)c(O)c2)c1
4. O=C(Nc1nc(C23CC4CC(CC(C4)C2)C3)cs1)c1cc2ccccc2oc1=O
5. O=C(/C=C/c1ccc(C(F)(F)F)cc1)c1ccc(Nc2nc(NCCO)nc(Nc3ccc(Cl)cc3)n2)cc1

Result string:
> 100 µM
> 100 µM
> 25 µM
> 100 µM
3.22 µM

Hi! Can you tell me TGI for each of these compounds?
1. CCN(CC)C(=O)C(C)n1cc(C)c(=O)[nH]c1=O (centres undefined)
2. Cc1ccnc(NC(NC(=O)c2ccccc2)(C(F)(F)F)C(F)(F)F)c1
3. CCCSS[C@H]1NC(=O)[C@H]1NC(=O)COc1ccccc1
4. C=C1CCC([N+](=O)[O-])[C@](C)(N=O)CC[C@@H]2C1CC2(C)C (some centres undefined)
5. O=C1C(Cl)=C(NCc2ccco2)C(=O)c2ccccc21
6. Cc1cc2c([nH]c3ccccc32)c2c1OC(C)(C)C1C3CC(C)(C)Oc4c(C)cc5c6ccccc6n(c5c43)C21 (centres undefined)
7. COc1cc2c(cc1OCCCC(=O)Nc1ccc3ccc4cccc5ccc1c3c45)N=C[C@@H]1CCCN1C2=O

Result string:
1. > 100 µM
2. > 100 µM
3. 30.2 µM
4. 41.7 µM
5. 72.7 µM
6. > 100 µM
7. > 100 µM

---

Tested on: HCC-2998 colon
Procedure text: NCI tumour cell line growth inhibition, 48 h
Attribute measured: TGI

Here are 4 compounds together with their reported answers.
Cn1cc(C(=O)C[n+]2ccccc2)c2ccccc21; > 100 µM
CC(=O)O[C@H]1C(=O)[C@@]2(C)C(C(OC(=O)c3ccccc3)C3[C@@H](O)C(OC(=O)[C@@H](O)[C@H](NC(=O)c4ccccc4)c4ccc(C(F)(F)F)cc4)C(C)=C1C3(C)C)[C@]1(OC(C)=O)CO[C@@H]1C[C@@H]2O (some centres undefined); > 25 µM
CC(=O)OCC1OC(n2c(-c3ccc(C)cc3)cc(-c3ccccc3)c(C#N)c2=O)C(OC(C)=O)C(OC(C)=O)C1OC(C)=O (centres undefined); > 100 µM
CC(=O)OCc1ccc2oc(=O)c(C(=O)Oc3ccccc3)cc2c1; > 100 µM

Hey, can you go through the list below and give me TGI for every item?
1. Cc1cc(C)cc(NC(N)=S)c1
2. Cc1cc(Cl)ccc1NC(=O)CC1SC(=Nc2ccccc2Cl)NC1=O (centres undefined)
3. COc1ccccc1NC(=O)CC(=O)N/N=C/c1ccc(N(CCC#N)S(=O)(=O)c2ccccc2)cc1

Result string:
1: > 100 µM; 2: > 100 µM; 3: > 100 µM

---

Assignment: determine reported TGI for the given compounds.
Tested on: COLO 205 colon
Procedure text: NCI tumour cell line growth inhibition, 48 h

Examples with their reported TGI follow.
CC(=O)OCc1ccc2oc(=O)c(C(=O)Oc3ccccc3)cc2c1; > 100 µM
COc1ccccc1NC(=O)CC(=O)N/N=C/c1ccc(N(CCC#N)S(=O)(=O)c2ccccc2)cc1; > 100 µM

get_value(item= N#Cc1c(N)nc(Sc2ccccc2N)c(C#N)c1-c1ccc(Cl)cc1 , readout=TGI) returns > 100 µM

---

System: U251 CNS
Procedure text: NCI tumour cell line growth inhibition, 48 h; in the data active = GI50 below about 0.43 µM; inactive = the rest
Respond using exactly one of the listed classes: active, inactive

These solved cases illustrate the format of a correct answer.
CCN1CCN(CC(=O)N2c3cccc4cccc(c34)N(C(=O)CN3CCN(CC)CC3)C2c2cn(-c3ccccc3)nc2-c2cccc([N+](=O)[O-])c2)CC1; inactive
O=C1C(=O)c2cccnc2-c2ncccc21; active

Query string: Could you kindly confirm the outcome this assay logged for COc1cc2c(cc1OCCCC(=O)Nc1ccc3ccc4cccc5ccc1c3c45)N=C[C@@H]1CCCN1C2=O ?
Result string: active

---

Could you please report measured TGI for the items listed next?
Test system: NCI-H23 lung
Procedure text: NCI tumour cell line growth inhibition, 48 h

Worked examples, 4 compounds total:
CCN(CC)c1ccc(C(=O)c2ccc(N(CC)CC)cc2)cc1; > 100 µM
Cc1ccc(S(=O)(=O)NNCNC(=O)c2ccccc2)cc1; > 100 µM
Cc1ccc2c(c1)-c1nc(N)c(C#N)c(-c3ccccc3)c1CCS2(=O)=O; > 100 µM
COC(C)(C)C/C=C/C(C)=C/C=C/C(C)=C\C=C\C(C)=C\C=C\C=C(C)\C=C\C=C(C)\C=C\C=C(C)\C=C\CC(C)(C)OC; > 150 µg/mL

Could you report TGI for every entry in the following list?
1. CCOC(=O)c1[nH]c(COC(C)=O)c2c1CCCCCCCCCC2
2. Cn1c2ccccc2c(=O)c2cccc(C(=O)NC(CCC(N)=O)C(=O)O)c21 (stereo unspecified)

Result string:
1: > 100 µM; 2: > 100 µM

---

I'd be grateful if you could share measured TGI for these entries.
Tested on: M14 melanoma
Procedure text: NCI tumour cell line growth inhibition, 48 h

Cc1cc(C)cc(NC(N)=S)c1; > 100 µM
CN(C)CCNC(=O)c1ccc(NC(=O)c2nc([N+](=O)[O-])cn2C)cc1; > 100 µM
COC(=O)CC[C@H](Cc1ccccc1)NC(=O)c1csc([C@@H](C[C@H](C(C)C)N(C)C(=O)[C@@H](NC(=O)[C@H]2CCCCN2C)C(C)C)OC(C)=O)n1; > 25 µM
O=c1c2cc(Cl)ccc2sc2cccc(Cl)c12; > 100 µM
Cn1c2ccccc2c(=O)c2cccc(C(=O)NC(CCC(N)=O)C(=O)O)c21 (stereo not given); > 100 µM
COc1cc(CNNC(N)=S)cc(OC)c1OC; > 100 µM
CC(C)(C)c1cc(O)ccc1O; > 100 µM
Cc1ccc(S(=O)(=O)NNCNC(=O)c2ccccc2)cc1; > 100 µM
CSc1nc(SC)c2c(CO)c(Br)n(Cc3ccccc3)c2n1; > 100 µM
CC1=C(C(=O)Nc2ccccc2)C2(CCCCC2)C(C#N)=C(SCC(=O)Nc2ccc(Br)cc2)N1; 10.9 µM

Here are 5 compounds. What values of TGI were reported for them?
1. O=C1Oc2cc(O)cc(/C=C/c3ccc(O)cc3)c2[C@@]12c1c(O)cc(O)cc1OC2c1cccc(O)c1 (stereo not given in full)
2. CC12CCC(Br)C(C)(C)C1CC=C1C(=O)OCC1O2 (stereo not given)
3. COC(=O)c1c2cccccc-2c(Cc2c3cccccc-3c(C(=O)OC)c2O)c1O
4. C#CCOc1cccc(Nc2ncnc3cc(NC(=O)CCl)ccc23)c1
5. COCN1C(=O)[C@@H]2CCCN2C(=O)c2cc(N)ccc21

Result string:
["> 100 µM", "> 51.9 µM", "> 100 µM", "20.4 µM", "> 100 µM"]
